The reported numbers originate from paper PMC7150989.

Test system: A/Duck/Guangdong/212/2004 (H5N1) virus
testDetails: microbe, parasite or virus in culture
Type: cell-based, H5N1 avian influenza virus
readoutType: pIC50
Please treat pIC50 as minus the base-10 logarithm of the molar concentration.

// field: pIC50; key: CC1CCC2(OC1)OC1CC3C4CC(=O)C5CC(OC6OC(CO)C(OC7OC(C)C(O)C(O)C7O)C(O)C6OC6OC(C)C(O)C(O)C6O)CCC5(C)C4CCC3(C)C1C2C (stereo not shown) ; value = 4.77

----------
testedSystem: H5N1 virus neuraminidase (Influenza A virus, UniProt Q9Q0U7)
Sequence (Q9Q0U7 whole entry, looked up): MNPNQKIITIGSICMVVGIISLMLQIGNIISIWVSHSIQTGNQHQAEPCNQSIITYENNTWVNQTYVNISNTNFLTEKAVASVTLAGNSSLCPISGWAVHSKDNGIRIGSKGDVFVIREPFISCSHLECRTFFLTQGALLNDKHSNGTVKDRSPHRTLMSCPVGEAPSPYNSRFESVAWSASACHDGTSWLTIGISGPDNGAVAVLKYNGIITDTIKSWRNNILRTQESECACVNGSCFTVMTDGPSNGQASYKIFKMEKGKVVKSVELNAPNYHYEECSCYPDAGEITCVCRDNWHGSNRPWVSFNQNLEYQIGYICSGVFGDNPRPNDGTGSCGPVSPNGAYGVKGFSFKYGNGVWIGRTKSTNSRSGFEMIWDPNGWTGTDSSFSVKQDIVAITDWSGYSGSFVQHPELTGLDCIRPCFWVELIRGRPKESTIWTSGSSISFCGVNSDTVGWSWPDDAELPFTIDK
testDetails: biochemical
conditionsUsed: read-out: IC50 against H5N1 viral NA
readoutType: pIC50
Quick note: pIC50 means taking -log10 of the concentration in moles per liter.

// pIC50 lookup, compound = CCC(CC)[C@H](NC(C)=O)[C@@H]1[C@H](O)[C@@H](C(=O)O)C[C@H]1N=C(N)N [peramivir, reference compound] , result: 9.18
